These data points were gathered from ChEMBL document CHEMBL1201862.

assay: inhibitors of HIV Env-driven cell fusion, dose response, cherry-pick (AID 652057); type: functional, cell-based
Activity calls are given as the source filed them. No rule for the calls is given here.
Item-by-item account of AC50

Solved cases below.
Q) Fill blank: measured AC50 of the compound C[C@H](CO)N1C[C@H](C)[C@H](CN(C)S(=O)(=O)c2ccccc2F)Oc2ncc(/C=C/c3ccccc3)cc2C1=O is ____.
A) 3.51 µM (active)

Q) Fill blank: measured AC50 of the compound CC(NCC(O)COCCC12CC3CC(CC(C3)C1)C2)c1ccccc1 (centres undefined) is ____.
A) 3.45 µM (active)

Q) Fill blank: measured AC50 of the compound CC(C)CC#Cc1ccc2c(c1)O[C@@H](CN(C)S(=O)(=O)c1cccc(F)c1)[C@@H](C)CN([C@@H](C)CO)S2(=O)=O is ____.
A) 7.21 µM (active)

Here's the next entry for you.
Q) Fill blank: measured AC50 of the compound CC(C)c1ccc(OCCCN2CCC(C(O)(c3ccccc3)c3ccccc3)CC2)cc1 is ____.
A) 9.63 µM (active)

* * *

Molecular target: Microphthalmia-associated transcription factor (Homo sapiens)
Sequence (O75030 whole entry): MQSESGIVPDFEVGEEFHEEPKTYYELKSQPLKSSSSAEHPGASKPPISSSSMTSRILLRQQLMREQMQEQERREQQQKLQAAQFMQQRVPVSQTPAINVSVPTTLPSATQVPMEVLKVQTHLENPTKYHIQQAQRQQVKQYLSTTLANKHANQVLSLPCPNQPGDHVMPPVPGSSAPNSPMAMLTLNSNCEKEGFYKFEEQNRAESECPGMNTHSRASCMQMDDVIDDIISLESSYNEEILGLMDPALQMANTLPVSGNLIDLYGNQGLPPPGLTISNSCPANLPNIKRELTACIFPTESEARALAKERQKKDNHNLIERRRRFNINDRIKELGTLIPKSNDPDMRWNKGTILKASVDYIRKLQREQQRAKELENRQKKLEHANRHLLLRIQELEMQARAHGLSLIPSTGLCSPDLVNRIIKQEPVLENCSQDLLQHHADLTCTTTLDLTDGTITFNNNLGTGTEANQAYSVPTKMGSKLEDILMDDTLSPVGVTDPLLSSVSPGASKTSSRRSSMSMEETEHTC
Test: TRPM1 promoter luciferase signal decrease, dose response, MITF inhibitor project, cell-based, SK-MEL-5, cherry-picked, set 3 (AID 493073);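 also: SK-MEL-5 melanoma cells with luciferase driven by the MITF target TRPM1 promoter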
Type: functional
Calls of active or inactive are those of the source. The rule behind the calls is not given here.
Quantity: AC50

Solved cases below.
Q) Short answer please: AC50, Microphthalmia-associated transcription factor (Homo sapiens), entry Cc1cccc(/C=C2/Sc3ccc(C(=O)NCCN4CCCC4)cc3NC2=O)c1
A) 18.4 µM (active)

Q) Short answer please: AC50, Microphthalmia-associated transcription factor (Homo sapiens), entry O=C(O)c1cccc(COc2ccccc2Cl)c1
A) 0.756 µM (active)

Q) Short answer please: AC50, Microphthalmia-associated transcription factor (Homo sapiens), entry Cc1nc2ccccn2c1C(=O)N/N=C/c1ccc([N+](=O)[O-])o1
A) 8.03 µM (active)

---
Q) Short answer please: AC50, Microphthalmia-associated transcription factor (Homo sapiens), entry COc1ccc(/C=N/Nc2cc(C)nc(-n3nc(C)cc3C)n2)c(OC)c1
A) 10.4 µM (active)

Q) Short answer please: AC50, Microphthalmia-associated transcription factor (Homo sapiens), entry Cc1ccc(-n2nnnc2CNC(=O)c2ccc([N+](=O)[O-])o2)cc1C
A) 9.72 µM (active)

Q) Short answer please: AC50, Microphthalmia-associated transcription factor (Homo sapiens), entry Cc1ccc(S(=O)(=O)[N-]C2=C(n3cc[n+](CCC(C)C)c3)C(=O)c3ccccc3C2=O)cc1
A) 4.11 µM (active)

Q) Short answer please: AC50, Microphthalmia-associated transcription factor (Homo sapiens), entry CN(C)c1ccc(-n2cccc2/C=C/[N+](=O)[O-])cc1
A) 10.2 µM (active)
